B1: STK38L (parent)
chain: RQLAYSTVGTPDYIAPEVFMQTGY

Variants of: B1
procedure-text: protein stability index of a GFP-peptide fusion (GPS, HEK-293T) (PSI 1-6); higher = more stable;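 further: lentivirally expressed fusions sorted by FACS into six bins by GFP to DsRed ratio, PSI derived from sequencing read proportions per bin multiplied by bin number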
experimental-conditions: c terminus: a fixed tail appended
Label rule, in plain words: protein stability index of 2 and up is Fulfilled, under 2 is Not fulfilled.

Please tell me: is the variant RQLAYSTVGTPDYIAPEVPMQTGY at or over 2 in terms of protein stability index?
Fulfilled

Hello, I need to know if RQLRYSTVGTPDYIAPEVFMQTGY has measured protein stability index not below 2. Thanks!
Fulfilled

Say whether RQLAYSFVGTPDYIAPEVFMQTGY shows protein stability index of 2 or more.
Not fulfilled

Is protein stability index for RQLAYSTVGTPDYIAPEVQMQTGY at or above 2?
Fulfilled

Given the entry RQLAYSTVGTPDYIAPECFMQTGY , answer whether its protein stability index meets or surpasses 2.
Fulfilled

Can RQLAYSTVGTPDYIAPEVLMQTGY be said to have protein stability index at or above 2?
Fulfilled

Is reported protein stability index greater than or equal to 2 here: RQLAYSTVGTPDYIAPEVFMQEGY
Fulfilled

Quick check: does RQLAYSTVGKPDYIAPEVFMQTGY have protein stability index greater than or equal to 2?
Fulfilled

Determine whether measured protein stability index meets or exceeds 2 for RQLAYSTVGTPDYIAPEVFMQTGD
Fulfilled

Determine whether this variant has protein stability index no lower than 2: VQLAYSTVGTPDYIAPEVFMQTGY
Fulfilled

Dear colleague, could you confirm whether FQLAYSTVGTPDYIAPEVFMQTGY has protein stability index at or above 2?
Fulfilled

Is protein stability index at least 2? Consider RQLAYSTVGQPDYIAPEVFMQTGY
Fulfilled

Given RQLAYSTVGTPDYIAPEVFQQTGY , state whether its protein stability index is at least 2.
Fulfilled

Quick check, protein stability index >= 2? RQLAYSTVGTPDYIAMEVFMQTGY
Fulfilled

Would you say MQLAYSTVGTPDYIAPEVFMQTGY shows protein stability index at minimum 2?
Not fulfilled

Textbook exercise: given the entry RQLAYSTVGTPDYIAPEVFMPTGY , state whether its protein stability index is greater than or equal to 2.
Fulfilled

Given RQLAYSTVGTPDYIAPEVFMQTGA , state whether its protein stability index is at least 2.
Fulfilled

Quick check: does RQLAYSTVGTPDYIAPEVFYQTGY have protein stability index greater than or equal to 2?
Fulfilled

Quick check, protein stability index >= 2? RQLAYSTVGTMDYIAPEVFMQTGY
Fulfilled

Confirm if protein stability index reported for the variant RQLAYSTYGTPDYIAPEVFMQTGY is 2 or above.
Not fulfilled

Entry RQLAYSTVGTPDYIAPEVFLQTGY : is its protein stability index no less than 2?
Fulfilled

For this variant, is measured protein stability index 2 or higher? RQLAYSTVGTPDYIAPEVVMQTGY
Fulfilled

For this variant, is measured protein stability index 2 or higher? RQLAYSTSGTPDYIAPEVFMQTGY
Fulfilled

Is protein stability index for EQLAYSTVGTPDYIAPEVFMQTGY at or above 2?
Fulfilled

# bool: protein stability index of RQLAYSTVGTPDYIAPEVFMCTGY >= 2
Not fulfilled

Textbook exercise: given the entry RQLAFSTVGTPDYIAPEVFMQTGY , state whether its protein stability index is greater than or equal to 2.
Fulfilled

Please indicate if the recorded protein stability index for RQLAYNTVGTPDYIAPEVFMQTGY meets or exceeds 2.
Fulfilled

Can RQLAYSTVGVPDYIAPEVFMQTGY be said to have protein stability index at or above 2?
Fulfilled

Please tell me: is the variant RQLAYSTVGEPDYIAPEVFMQTGY at or over 2 in terms of protein stability index?
Fulfilled

Test whether the variant RQLAYSTVGTPLYIAPEVFMQTGY records protein stability index of 2 or higher.
Fulfilled

Please tell me: is the variant RQLAYSTKGTPDYIAPEVFMQTGY at or over 2 in terms of protein stability index?
Fulfilled

Check the entry RQLAYSTVGTPDGIAPEVFMQTGY : does protein stability index equal or exceed 2?
Fulfilled

hey, is protein stability index for this one >= 2? RQHAYSTVGTPDYIAPEVFMQTGY
Fulfilled

Does the variant RQLAYSTAGTPDYIAPEVFMQTGY have recorded protein stability index that is 2 or more?
Fulfilled

Exam item: decide whether the reported protein stability index for RALAYSTVGTPDYIAPEVFMQTGY is at least 2.
Fulfilled

Is reported protein stability index greater than or equal to 2 here: RQLAYSTVGTPDYIAPEVFMQTWY
Not fulfilled

For this variant, is measured protein stability index 2 or higher? RQLAHSTVGTPDYIAPEVFMQTGY
Fulfilled

Evaluate RQLAYSTVGTPDYIAPEKFMQTGY : protein stability index at minimum 2?
Fulfilled

Hi, just wondering whether RQLAYSTVGTPDYIAPEVGMQTGY shows protein stability index of 2 or higher.
Fulfilled

Evaluate RQLAYSTVGTPDHIAPEVFMQTGY : protein stability index at minimum 2?
Fulfilled

Does RQFAYSTVGTPDYIAPEVFMQTGY have a reported protein stability index of at least 2?
Fulfilled

Entry RQLAYSTVATPDYIAPEVFMQTGY : is its protein stability index no less than 2?
Fulfilled

Confirm if protein stability index reported for the variant RQLAYSTVGTPDYIAPEVCMQTGY is 2 or above.
Fulfilled

Dear colleague, could you confirm whether RQLAYSTVGTPDYIAPAVFMQTGY has protein stability index at or above 2?
Fulfilled

Could you please find out whether RHLAYSTVGTPDYIAPEVFMQTGY has protein stability index that meets 2 or exceeds it?
Not fulfilled

Check the entry RQLAYSTVGTPDYIAPEVTMQTGY : does protein stability index equal or exceed 2?
Fulfilled

Check if protein stability index >= 2 (inclusive). Item: RQLAYSTVGTPDYIAPEVFPQTGY
Fulfilled

Exam item: decide whether the reported protein stability index for RQLAYSTVGTPEYIAPEVFMQTGY is at least 2.
Fulfilled

Is reported protein stability index greater than or equal to 2 here: RQLAYSTVGTPDYLAPEVFMQTGY
Fulfilled

Does the reported protein stability index for RQLAYSTVGCPDYIAPEVFMQTGY fall at or above the 2 mark?
Fulfilled

Please tell me: is the variant RQLAYSTVGTPDYIAKEVFMQTGY at or over 2 in terms of protein stability index?
Not fulfilled

Does protein stability index meet or surpass 2 for RQLAYSTCGTPDYIAPEVFMQTGY ?
Not fulfilled

# bool: protein stability index of RQLAYSWVGTPDYIAPEVFMQTGY >= 2
Not fulfilled

// inclusive: protein stability index at least 2? input: RQLAYSTVGTPDYPAPEVFMQTGY
Fulfilled

Hello, I need to know if RQLAYSTVGTPDYIAPEVFMATGY has measured protein stability index not below 2. Thanks!
Fulfilled

Evaluate RQLAYSTVGTPDYIAPEVFEQTGY : protein stability index at minimum 2?
Fulfilled

Confirm if protein stability index reported for the variant RQLAVSTVGTPDYIAPEVFMQTGY is 2 or above.
Fulfilled

Threshold query (protein stability index >= 2) on RQLAYSTVGTPDYIAIEVFMQTGY
Fulfilled

Is protein stability index at least 2? Consider RQLAYSTVGTPDYEAPEVFMQTGY
Fulfilled

Does protein stability index meet or surpass 2 for RQLAYSTVGTPDYIALEVFMQTGY ?
Not fulfilled

Form field: protein stability index at least 2? Entry: RQLASSTVGTPDYIAPEVFMQTGY
Fulfilled

Hi, just wondering whether LQLAYSTVGTPDYIAPEVFMQTGY shows protein stability index of 2 or higher.
Not fulfilled

Entry RQLAYSTVGTPDYIAQEVFMQTGY : is its protein stability index no less than 2?
Fulfilled

I'd appreciate it if you could say whether RQLAYSTVGTPDYIAPEVFMQTGP has protein stability index at least equal to 2.
Fulfilled

Is the recorded value of protein stability index equal to or greater than 2 for this variant? RQIAYSTVGTPDYIAPEVFMQTGY
Fulfilled

Item RQLAYSTVGTPDYINPEVFMQTGY with protein stability index of 2 or above?
Fulfilled

Does the variant RQLAYSTVGTPDYIAPEVFMGTGY have recorded protein stability index that is 2 or more?
Fulfilled

State whether the measured protein stability index reaches 2, counting equality as reaching it, for RQLAYSTVGTPDYGAPEVFMQTGY
Fulfilled

# check: protein stability index of RQLAYSTVGTPDYIAPERFMQTGY is greater than or equal to 2
Fulfilled

Please check the record RQLAYSTVGTPDLIAPEVFMQTGY and state if its protein stability index is at or above 2.
Fulfilled

Could you tell me if the measured protein stability index of RQDAYSTVGTPDYIAPEVFMQTGY reaches 2 or more?
Fulfilled

In plain terms: is recorded protein stability index at least 2 for RQLAYSTVGTPDYIAPEVFAQTGY ?
Fulfilled

Dear colleague, could you confirm whether RQLAYSTVGTPDYIEPEVFMQTGY has protein stability index at or above 2?
Fulfilled

I'd appreciate it if you could say whether RQLACSTVGTPDYIAPEVFMQTGY has protein stability index at least equal to 2.
Fulfilled

# check: protein stability index of RQLANSTVGTPDYIAPEVFMQTGY is greater than or equal to 2
Fulfilled

In plain terms: is recorded protein stability index at least 2 for RQLAYSAVGTPDYIAPEVFMQTGY ?
Fulfilled

Record RCLAYSTVGTPDYIAPEVFMQTGY ; criterion: protein stability index no lower than 2. Met?
Fulfilled

// inclusive: protein stability index at least 2? input: RQLAYSTVGTPDYIAPCVFMQTGY
Not fulfilled
